test: Oral pharmacokinetic study in rats; assay type: in vivo; conditions: SD, rat, plasma, 10 mg/kg
reported.property: Cmax (ng/mL)
Form entry: value (ng/mL) — number only.

INPUT: For O=C(c1cccc(Nc2c(NC3C[C@@H]4CC[C@H]3C4)c(=O)c2=O)c1O)N1CCCC1 (stereo partly shown) , what is its reported Cmax?
OUTPUT: 2860

====

target: CXCR2 (Homo sapiens, UniProt P25025); assay: CXCR2 antagonistic activity assay
Sequence (P25025 whole entry): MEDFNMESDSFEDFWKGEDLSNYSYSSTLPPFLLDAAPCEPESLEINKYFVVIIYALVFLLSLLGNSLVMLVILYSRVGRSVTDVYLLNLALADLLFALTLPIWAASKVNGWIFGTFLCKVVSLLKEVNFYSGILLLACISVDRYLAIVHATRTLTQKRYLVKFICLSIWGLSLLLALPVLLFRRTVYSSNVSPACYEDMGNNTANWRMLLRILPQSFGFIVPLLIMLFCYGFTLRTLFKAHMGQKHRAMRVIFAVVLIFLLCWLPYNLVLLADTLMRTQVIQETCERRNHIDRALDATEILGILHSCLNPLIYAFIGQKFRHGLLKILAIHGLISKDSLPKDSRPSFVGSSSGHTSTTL
reported.property: IC50

INPUT: Item CN(C)C(=O)c1cccc(Nc2c(NC3C[C@H]4CC[C@]3(C)C4(C)C)c(=O)c2=O)c1O (some centres unmarked) with CXCR2 (Homo sapiens, UniProt P25025) - IC50?
OUTPUT: 5.5 µM

INPUT: Which measured IC50 belongs to CC(C)[S+]([O-])c1c(Cl)ccc(Nc2c(NC3C[C@@H]4CC[C@H]3C4)c(=O)c2=O)c1O (some centres unmarked) , tested on CXCR2 (Homo sapiens, UniProt P25025)?
OUTPUT: 0.092 µM

INPUT: Form field: IC50 recorded for CN(C)C(=O)c1cccc(Nc2c(NCC3C[C@H]4C=C[C@@H]3C4)c(=O)c2=O)c1O (some centres unmarked) with CXCR2 (Homo sapiens, UniProt P25025) (enter value)
OUTPUT: 2.6 µM

INPUT: Param readout= IC50; system= CXCR2 (Homo sapiens, UniProt P25025); entry= Cc1ccc(Nc2c(NC3C[C@@H]4CC[C@H]3C4)c(=O)c2=O)c(O)c1 (some centres unmarked) ; returns value.
OUTPUT: 3.8 µM

INPUT: Item CN(C)C(=O)c1cccc(Nc2c(NC3C[C@H]4CC[C@@H](C3)N4C(=O)OC(C)(C)C)c(=O)c2=O)c1O (some centres unmarked) with CXCR2 (Homo sapiens, UniProt P25025) - IC50?
OUTPUT: > 100 µM
